# Tested on: mushroom tyrosinase
# protocolDescription: Mushroom tyrosinase assay with L-dopa
# Assay type: biochemical
# conditionSet: test compound 100 μM; percent of untreated control reaction
assayEndpoint: Mushroom Tyrosinase at 100 μM (% of control)

{"columns": ["compound", "obsValue"],
 "data": [
  ["CC(C)CC(C(=O)NC1CCCC1)N(C(=O)c1snc(C(N)=O)c1N)c1ccccc1 (centres unmarked)", "89.4% of control"],
  ["NC(=O)c1nsc(C(=O)N(c2ccccc2)C(C(=O)NC2CCCC2)c2cccs2)c1N (centres unmarked)", "101.8% of control"],
  ["CC(C)(C)NC(=O)C(c1ccc(F)cc1)N(C(=O)c1snc(C(N)=O)c1N)c1cccc(F)c1 (centres unmarked)", "106.1% of control"],
  ["CNC(=O)c1ccccc1NC(=O)c1c(O)nc2c(c1O)CCCC2", "100.0% of control"],
  ["CC(C)(C)C1CCc2c(sc(NC(=O)/C=C/C(=O)O)c2C#N)C1 (centres unmarked)", "88.2% of control"],
  ["CCc1ccc(NC(=O)/C=C/C(=O)O)cc1", "89.4% of control"],
  ["CC(C)(C)NC(=O)C(c1ccc(F)cc1)N(C(=O)c1snc(C(N)=O)c1N)c1ccccc1 (centres unmarked)", "101.9% of control"],
  ["CC(C)(C)NC(=O)C(c1ccc(F)cc1)N(Cc1ccccc1)C(=O)c1snc(C(N)=O)c1N (centres unmarked)", "98.6% of control"]
]}

Query block: Given CC(C)(C)NC(=O)C(c1c[nH]c2ccccc12)N(C(=O)c1snc(C(N)=O)c1N)c1ccccc1 (centres unmarked) , state its recorded Mushroom Tyrosinase at 100 μM (% of control).
Result block: 96.0% of control

Query block: Given CCOC(=O)c1c(NC(=O)/C=C/C(=O)O)sc2c1CCC(C(C)(C)CC)C2 (centres unmarked) , state its recorded Mushroom Tyrosinase at 100 μM (% of control).
Result block: 90.8% of control

Query block: Given CCCC(C(=O)NC(C)(C)C)N(Cc1ccccc1Cl)C(=O)c1snc(C(N)=O)c1N (centres unmarked) , state its recorded Mushroom Tyrosinase at 100 μM (% of control).
Result block: 102.5% of control
